- System: human HepG2 cells
- experiment notes: MTT cell viability (cytotoxicity) assay
value type: % Viability (%)
API: value field is a number in %; no unit string.

> print(dat)
                                   compound   value.type  result.value
1  COC(=O)CCC(=O)Nc1ccc(S(N)(=O)=O)cc1 [ST040289]  % Viability          78.8

-- ask Fill in: % Viability of Cc1cccc(N(CC(=O)Nc2ccc(Cc3ccncc3)cc2)S(=O)(=O)c2ccccc2)c1 [ST034014] is ___
-- reply 84.27

-- ask Fill in: % Viability of CCc1ccc(/C=N/c2ccc(S(N)(=O)=O)cc2)cc1 [ST016444] is ___
-- reply 53.92
